Assay: in vivo
Conditions: rat, po
experimentalEndpoint: LD50

Returns the measured LD50 for the input compound. Input: Cc1ccc([C@@H]2CCCN2C)cn1.O=C(O)c1ccccc1 [(S)-6-Methylnicotine benzoate]
120 to 215 mg/kg
